test: Stability test in human plasma (LC-MS/MS); format: in vitro ADME; conditions: human, human plasma, 1 µM, 37 °C
I'd appreciate it if you could supply half-life at 1 µM values for the items below.

Asked: Given the entry COc1cc2c(cc1OC)CN(CCc1ccc(NC(=O)c3c(OC)cccc3OC)cc1)CC2 [Compound 4] , report its measured half-life at 1 µM.
Given back: ≥ 4 h

Asked: Consider next the compound COc1cc2c(cc1OC)CN(CCc1ccc(OC(=O)c3cccc4ccccc34)cc1)CC2 [Compound 19] in the same way.
Given back: ≥ 4 h

Asked: Now this one: COc1ccc(C(=O)Nc2ccc(CCN3CCc4cc(OC)c(OC)cc4C3)cc2)c(OC)c1 [Compound 3]
Given back: ≥ 4 h

Asked: Another: COc1cc2c(cc1OC)CN(CCc1ccc(NC(=O)c3cccc(OC)c3OC)cc1)CC2 [Compound 5]
Given back: ≥ 4 h

Asked: Field entry: COc1cc2c(cc1OC)CN(CCc1ccc(NC(=O)c3c(OC)c(OC)cc4ccccc34)cc1)CC2 [Compound 8]
Given back: ≥ 4 h

Asked: COc1cc2c(cc1OC)CN(CCc1ccc(OC(=O)c3c(OC)cccc3OC)cc1)CC2 [Compound 17] ?
Given back: ≥ 4 h

Asked: What do you get for COc1cncc(C(=O)Nc2ccc(CCN3CCc4cc(OC)c(OC)cc4C3)cc2)n1 [Compound 12] ?
Given back: ≥ 4 h

Asked: // next record COc1cc2c(cc1OC)CN(CCc1ccc(NC(=O)c3ccccc3OC)cc1)CC2 [Compound 2]
Given back: ≥ 4 h

Asked: Repeat for the following compound: COc1cc2c(cc1OC)CN(CCc1ccc(OC(=O)c3cccnc3)cc1)CC2 [Compound 22]
Given back: ≥ 4 h

Asked: Note, next up: COc1cc2c(cc1OC)CN(CCc1ccc(OC(=O)c3ccccc3OC)cc1)CC2 [Compound 15]
Given back: 1.05 h

Asked: What do you have for COc1ccc2nccc(C(=O)Nc3ccc(CCN4CCc5cc(OC)c(OC)cc5C4)cc3)c2c1 [Compound 13] ?
Given back: ≥ 4 h

Asked: Another compound to look at: COc1cncc(C(=O)Oc2ccc(CCN3CCc4cc(OC)c(OC)cc4C3)cc2)n1 [Compound 25]
Given back: ~0.1 h

Asked: Would you mind doing COc1ccc(C(=O)Nc2ccc(CCN3CCc4cc(OC)c(OC)cc4C3)cc2)cn1 [Compound 10] as well?
Given back: ≥ 4 h

Asked: And the next one, COc1cc2c(cc1OC)CN(CCc1ccc(NC(=O)c3cnccn3)cc1)CC2 [Compound 11] ?
Given back: ≥ 4 h

Asked: Item: COc1cc2c(cc1OC)CN(CCc1ccc(OC(=O)c3ccc(OC)c(OC)c3OC)cc1)CC2 [Compound 14]
Given back: ≥ 4 h

Asked: For COc1ccc(C(=O)Oc2ccc(CCN3CCc4cc(OC)c(OC)cc4C3)cc2)c(OC)c1 [Compound 16] then?
Given back: 1.47 h

Asked: What do you get for COc1cc2c(cc1OC)CN(CCc1ccc(OC(=O)c3cnccn3)cc1)CC2 [Compound 24] ?
Given back: 0.7 h

Asked: // next record COc1cc2c(cc1OC)CN(CCc1ccc(NC(=O)c3c(OC)ccc4ccccc34)cc1)CC2 [Compound 7]
Given back: ≥ 4 h

###

molecular target: P-gp (Homo sapiens, UniProt P08183); assay: Inhibition of Calcein-AM transport in MDCK-MDR1 cells; settings: Calcein-AM, MDCK-MDR1 cells; mean ± SEM of two experiments
Sequence (P08183 whole entry): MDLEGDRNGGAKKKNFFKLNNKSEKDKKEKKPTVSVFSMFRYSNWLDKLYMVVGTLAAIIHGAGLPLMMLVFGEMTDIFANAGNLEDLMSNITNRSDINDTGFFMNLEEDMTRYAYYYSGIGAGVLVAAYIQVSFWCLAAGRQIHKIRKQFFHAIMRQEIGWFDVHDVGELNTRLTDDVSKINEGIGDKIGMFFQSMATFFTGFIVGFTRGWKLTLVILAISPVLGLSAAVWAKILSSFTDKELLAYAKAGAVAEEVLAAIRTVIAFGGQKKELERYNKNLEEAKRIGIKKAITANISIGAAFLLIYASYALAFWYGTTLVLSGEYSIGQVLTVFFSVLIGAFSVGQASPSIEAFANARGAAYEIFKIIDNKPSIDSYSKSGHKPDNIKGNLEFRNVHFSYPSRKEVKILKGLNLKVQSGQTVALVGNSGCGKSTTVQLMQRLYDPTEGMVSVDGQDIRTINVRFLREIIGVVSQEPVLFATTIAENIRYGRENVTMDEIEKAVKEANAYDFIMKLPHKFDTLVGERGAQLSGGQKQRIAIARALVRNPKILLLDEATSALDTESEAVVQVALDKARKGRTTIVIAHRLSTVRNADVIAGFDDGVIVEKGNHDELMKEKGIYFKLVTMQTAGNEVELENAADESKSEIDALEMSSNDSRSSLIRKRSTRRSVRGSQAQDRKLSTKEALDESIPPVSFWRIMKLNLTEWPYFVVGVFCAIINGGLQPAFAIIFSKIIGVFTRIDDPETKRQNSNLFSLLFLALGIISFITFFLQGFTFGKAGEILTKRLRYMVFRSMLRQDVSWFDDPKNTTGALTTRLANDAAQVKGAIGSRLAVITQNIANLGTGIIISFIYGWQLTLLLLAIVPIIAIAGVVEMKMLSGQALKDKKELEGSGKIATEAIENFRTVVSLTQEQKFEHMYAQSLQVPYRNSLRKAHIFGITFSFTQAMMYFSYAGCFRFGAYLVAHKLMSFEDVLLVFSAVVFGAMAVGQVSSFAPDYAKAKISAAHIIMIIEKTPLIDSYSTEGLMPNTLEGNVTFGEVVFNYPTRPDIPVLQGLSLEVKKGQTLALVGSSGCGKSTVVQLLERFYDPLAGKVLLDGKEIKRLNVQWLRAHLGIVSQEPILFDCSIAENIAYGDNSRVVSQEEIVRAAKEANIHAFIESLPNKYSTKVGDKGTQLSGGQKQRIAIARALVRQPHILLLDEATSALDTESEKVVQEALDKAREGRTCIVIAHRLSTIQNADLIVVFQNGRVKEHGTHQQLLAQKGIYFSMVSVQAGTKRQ
pEC50: −log10 of the molar value.
Could you please classify the records by pEC50 using these ranges: low (below 6), moderate (6 to below 7), high (7 or more)

Asked: Band for the recorded pEC50 of COc1cc2c(cc1OC)CN(CCc1ccc(OC(=O)c3ccc(OC)c(OC)c3OC)cc1)CC2 [Compound 14] ?
Given back: moderate

Asked: Same read-out for COc1cc2c(cc1OC)CN(CCc1ccc(NC(=O)c3ccccc3OC)cc1)CC2 [Compound 2] ?
Given back: moderate

Asked: // repeat for COc1cc2c(cc1OC)CN(CCc1ccc(NC(=O)c3cccnc3)cc1)CC2 [Compound 9] and report
Given back: low

Asked: Same for COc1cc2c(cc1OC)CN(CCc1ccc(OC(=O)c3cccnc3)cc1)CC2 [Compound 22]
Given back: low

Asked: Likewise for COc1ccc(C(=O)Nc2ccc(CCN3CCc4cc(OC)c(OC)cc4C3)cc2)c(OC)c1 [Compound 3] ?
Given back: high

Asked: Now consider COc1cc2c(cc1OC)CN(CCc1ccc(NC(=O)c3c(OC)cccc3OC)cc1)CC2 [Compound 4] .
Given back: low

Asked: And COc1cc2c(cc1OC)CN(CCc1ccc(NC(=O)c3ccc(OC)c(OC)c3OC)cc1)CC2 [Compound 1] ?
Given back: moderate

Asked: Do the same for COc1cc2c(cc1OC)CN(CCc1ccc(NC(=O)c3cc(OC)c(OC)cc3NC(=O)c3cnc4ccccc4c3)cc1)CC2 [tariquidar, reference compound] please
Given back: high

Asked: Item: COc1cc2c(cc1OC)CN(CCc1ccc(OC(=O)c3cnccn3)cc1)CC2 [Compound 24]
Given back: low

###

assay: Stability test in human plasma (LC-MS/MS); assay type: in vitro ADME; conditions: human, human plasma, 1 µM, 37 °C
Kindly supply the reported half-life at 1 µM values for the records listed here.

Asked: // query half-life at 1 µM value for entry `COc1cc2c(cc1OC)CN(CCc1ccc(NC(=O)c3cccc4ccccc34)cc1)CC2`
Given back: ≥ 4 h

Asked: Please do the same for `COc1cc2c(cc1OC)CN(CCc1ccc(OC(=O)c3cccc(OC)c3OC)cc1)CC2` as well.
Given back: 0.9 h

Asked: Next: `COc1cc2c(cc1OC)CN(CCc1ccc(NC(=O)c3cccnc3)cc1)CC2`
Given back: ≥ 4 h

Asked: Another compound to look at: `COc1cc2c(cc1OC)CN(CCc1ccc(OC(=O)c3c(OC)c(OC)cc4ccccc34)cc1)CC2`
Given back: ≥ 4 h

Asked: Same thing, different compound: `COc1cc2c(cc1OC)CN(CCc1ccc(OC(=O)c3c(OC)ccc4ccccc34)cc1)CC2`
Given back: ≥ 4 h

Asked: Queued: `COc1ccc(C(=O)Oc2ccc(CCN3CCc4cc(OC)c(OC)cc4C3)cc2)cn1`
Given back: ≥ 4 h

Asked: Queued: `COc1cc2c(cc1OC)CN(CCc1ccc(NC(=O)c3ccc(OC)c(OC)c3OC)cc1)CC2`
Given back: ≥ 4 h

Asked: Subsequent entry: `COc1ccc2nccc(C(=O)Oc3ccc(CCN4CCc5cc(OC)c(OC)cc5C4)cc3)c2c1`
Given back: 2.07 h

###

I'd be grateful if you could share measured EC50 for these entries.
biological target: BCRP (Homo sapiens, UniProt Q9UNQ0); construct: expressed in transfected cells; host or cells: MDCK-BCRP (Madin-Darby Canine Kidney cells, gift of Prof. P. Borst, NKI-AVL); test: Inhibition of Hoechst 33342 efflux in MDCK-BCRP cells; assay type: cell-based; settings: Hoechst 33342, MDCK-BCRP cells; NA: not active
Sequence (Q9UNQ0 whole entry): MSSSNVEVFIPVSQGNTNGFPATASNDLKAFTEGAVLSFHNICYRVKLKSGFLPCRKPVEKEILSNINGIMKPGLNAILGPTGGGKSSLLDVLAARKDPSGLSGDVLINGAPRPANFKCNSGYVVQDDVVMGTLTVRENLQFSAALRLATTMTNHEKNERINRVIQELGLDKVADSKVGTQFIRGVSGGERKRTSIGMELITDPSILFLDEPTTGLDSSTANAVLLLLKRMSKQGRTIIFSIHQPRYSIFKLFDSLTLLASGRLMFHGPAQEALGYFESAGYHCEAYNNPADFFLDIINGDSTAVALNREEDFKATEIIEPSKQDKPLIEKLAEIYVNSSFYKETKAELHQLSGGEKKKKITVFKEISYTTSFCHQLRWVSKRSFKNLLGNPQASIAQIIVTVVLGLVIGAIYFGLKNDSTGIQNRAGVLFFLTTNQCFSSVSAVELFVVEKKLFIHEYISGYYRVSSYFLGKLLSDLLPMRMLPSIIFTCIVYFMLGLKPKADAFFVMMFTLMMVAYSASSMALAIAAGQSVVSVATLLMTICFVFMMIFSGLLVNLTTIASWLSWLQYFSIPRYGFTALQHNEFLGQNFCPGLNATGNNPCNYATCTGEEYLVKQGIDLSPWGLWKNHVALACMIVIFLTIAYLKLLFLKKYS

Asked: Notebook: pull reported EC50 for BCRP (Homo sapiens, UniProt Q9UNQ0), entry COc1cc2c(cc1OC)CN(CCc1ccc(OC(=O)c3ccc(OC)c(OC)c3OC)cc1)CC2 [Compound 14]
Given back: 15.1 µM

Asked: Here is the next compound: COc1ccc(C(=O)Nc2ccc(CCN3CCc4cc(OC)c(OC)cc4C3)cc2)c(OC)c1 [Compound 3]
Given back: 1 µM

Asked: COc1cc2c(cc1OC)CN(CCc1ccc(NC(=O)c3ccc(OC)c(OC)c3OC)cc1)CC2 [Compound 1] ?
Given back: 21.2 µM

Asked: Here is the next compound: COc1cc2c(cc1OC)CN(CCc1ccc(OC(=O)c3c(OC)ccc4ccccc34)cc1)CC2 [Compound 20]
Given back: 7.3 µM

Asked: Also COc1cc2c(cc1OC)CN(CCc1ccc(NC(=O)c3cc(OC)c(OC)cc3NC(=O)c3cnc4ccccc4c3)cc1)CC2 [tariquidar, reference compound] , if possible.
Given back: 0.01 µM

Asked: Further, for COc1ccc(C(=O)Oc2ccc(CCN3CCc4cc(OC)c(OC)cc4C3)cc2)c(OC)c1 [Compound 16] ?
Given back: 11 µM

###

Please go through the items and note down their EC50.
target: MRP1 (Homo sapiens, UniProt P33527); assay: Inhibition of Calcein-AM efflux in MDCK-MRP1 cells; conditions: Calcein-AM, NA: not active
Sequence (P33527 whole entry): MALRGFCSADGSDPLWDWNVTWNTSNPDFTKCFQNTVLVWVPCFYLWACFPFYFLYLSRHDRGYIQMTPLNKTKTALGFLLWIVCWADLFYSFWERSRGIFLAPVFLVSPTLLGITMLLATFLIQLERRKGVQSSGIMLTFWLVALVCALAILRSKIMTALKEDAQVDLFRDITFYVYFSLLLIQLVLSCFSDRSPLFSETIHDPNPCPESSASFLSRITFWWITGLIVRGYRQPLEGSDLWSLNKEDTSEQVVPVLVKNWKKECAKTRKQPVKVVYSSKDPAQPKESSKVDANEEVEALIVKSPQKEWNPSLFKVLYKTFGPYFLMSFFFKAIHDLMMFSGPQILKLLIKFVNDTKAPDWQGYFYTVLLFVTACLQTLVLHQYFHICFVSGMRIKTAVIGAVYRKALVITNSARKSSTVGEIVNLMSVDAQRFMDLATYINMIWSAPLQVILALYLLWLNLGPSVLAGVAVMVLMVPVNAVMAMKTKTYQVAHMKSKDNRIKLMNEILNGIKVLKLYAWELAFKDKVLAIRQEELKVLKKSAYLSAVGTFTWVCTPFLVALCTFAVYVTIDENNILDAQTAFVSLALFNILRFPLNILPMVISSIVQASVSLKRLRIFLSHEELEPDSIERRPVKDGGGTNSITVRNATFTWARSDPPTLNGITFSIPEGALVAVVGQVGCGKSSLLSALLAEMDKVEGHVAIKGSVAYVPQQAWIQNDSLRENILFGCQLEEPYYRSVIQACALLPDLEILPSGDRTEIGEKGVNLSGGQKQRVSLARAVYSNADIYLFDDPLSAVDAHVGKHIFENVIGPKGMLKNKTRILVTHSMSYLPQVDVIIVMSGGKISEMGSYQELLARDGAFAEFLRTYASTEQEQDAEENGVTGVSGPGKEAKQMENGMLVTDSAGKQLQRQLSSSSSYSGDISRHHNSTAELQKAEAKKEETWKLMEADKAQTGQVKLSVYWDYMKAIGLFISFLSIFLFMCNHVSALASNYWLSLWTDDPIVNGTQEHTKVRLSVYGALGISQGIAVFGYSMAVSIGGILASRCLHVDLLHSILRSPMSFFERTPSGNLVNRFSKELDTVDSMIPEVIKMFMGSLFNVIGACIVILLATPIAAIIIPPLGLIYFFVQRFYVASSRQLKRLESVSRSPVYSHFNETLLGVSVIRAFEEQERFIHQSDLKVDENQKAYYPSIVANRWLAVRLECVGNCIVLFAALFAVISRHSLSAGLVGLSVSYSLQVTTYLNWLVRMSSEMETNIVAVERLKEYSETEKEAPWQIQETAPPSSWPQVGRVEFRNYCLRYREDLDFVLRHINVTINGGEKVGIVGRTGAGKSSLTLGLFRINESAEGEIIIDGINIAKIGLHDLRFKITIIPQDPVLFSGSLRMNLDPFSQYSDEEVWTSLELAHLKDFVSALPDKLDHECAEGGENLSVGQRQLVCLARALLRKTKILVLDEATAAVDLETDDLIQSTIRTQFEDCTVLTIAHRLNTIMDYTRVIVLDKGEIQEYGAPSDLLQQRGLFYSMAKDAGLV
Expressed in µM, but write only the number.

Asked: Entry under review: `COc1ccc(C(=O)Oc2ccc(CCN3CCc4cc(OC)c(OC)cc4C3)cc2)c(OC)c1` . Reported EC50?
Given back: 87

Asked: Another compound to check: `COc1cc2c(cc1OC)CN(CCc1ccc(OC(=O)c3ccc(OC)c(OC)c3OC)cc1)CC2`
Given back: 69.7

###

target: P-gp (Homo sapiens, UniProt P08183); construct: expressed in transfected cells; host or cells: MDCK-MDR1 (Madin-Darby Canine Kidney cells, gift of Prof. P. Borst, NKI-AVL); experiment: ATP cell depletion (ATPlite assay) in MDCK-MDR1 cells; type: cell-based; details: Yes/No

[
  {
    "COMPOUND": "COc1cncc(C(=O)Nc2ccc(CCN3CCc4cc(OC)c(OC)cc4C3)cc2)n1",
    "ATP cell depletion": "No"
  },
  {
    "COMPOUND": "COc1cc2c(cc1OC)CN(CCc1ccc(NC(=O)c3cc(OC)c(OC)cc3NC(=O)c3cnc4ccccc4c3)cc1)CC2 [tariquidar, reference compound]",
    "ATP cell depletion": "Yes^f"
  },
  {
    "COMPOUND": "COc1cc2c(cc1OC)CN(CCc1ccc(OC(=O)c3c(OC)ccc4ccccc34)cc1)CC2",
    "ATP cell depletion": "No"
  },
  {
    "COMPOUND": "COc1cc2c(cc1OC)CN(CCc1ccc(NC(=O)c3c(OC)cccc3OC)cc1)CC2",
    "ATP cell depletion": "No"
  }
]
